Measured values drawn from patent US7253211B2 for this set.

molecular target: CETP (Homo sapiens); experiment: Assay of CETP Inhibition in Human Plasma; assay type: biochemical; set-up: Blood was obtained from healthy volunteers; from tissue; host or cells: human EDTA plasma pool from healthy volunteers; conditions: human EDTA plasma pool, [3H]CE-HDL, 37° C., 4 hours
pIC50: −log10 of the molar value.
OBSERVED_PROPERTY: pIC50

Check out these entries, answers already filled in.
>>> recorded_value("CCc1cc(Oc2cccc(N(Cc3cccc(OC(F)(F)F)c3)C[C@@H](O)C(F)(F)F)c2)ccc1Cl")
6.10
>>> recorded_value("Cc1ccc(Oc2cccc(N(Cc3cccc(OC(F)(F)F)c3)C[C@@H](O)C(F)(F)F)c2)cc1")
5.14
>>> recorded_value("O[C@H](CN(Cc1cccc(OC(F)(F)C(F)F)c1)c1cccc(Oc2cc(F)ccc2Br)c1)C(F)(F)F")
5.82

A: O[C@H](CN(Cc1cccc(OC(F)(F)F)c1)c1cccc(Oc2cccc(OC(F)(F)F)c2)c1)C(F)(F)F
B: CCc1cc(Oc2cccc(N(Cc3cccc(C(F)(F)C(F)(F)F)c3)C[C@@H](O)C(F)(F)F)c2)ccc1Cl
C: O[C@H](CN(Cc1cccc(OC(F)(F)F)c1)c1cccc(Oc2ccc(F)cc2)c1)C(F)(F)F
D: CCc1cc(Oc2cccc(N(Cc3cc(C(F)(F)F)ccc3F)C[C@@H](O)C(F)(F)F)c2)ccc1Cl
*Q* Order the records, beginning with the lowest pIC50 and ending with the highest. Answer by listing the labels in the order asked for.
*A* C, A, D, B
(C: 4.96, A: 5.85, D: 6.11, B: 6.36)

P: CCc1cc(Oc2cccc(N(Cc3ccc(C(F)(F)F)cc3F)C[C@@H](O)C(F)(F)F)c2)ccc1Cl
Q: O[C@H](CN(Cc1cccc(OC(F)(F)C(F)F)c1)c1cccc(OCc2cccc(C(F)(F)F)c2)c1)C(F)(F)F
*Q* Which record shows the lower pIC50: the first, P , or the second, Q ? Indicate which entry you chose by stating its label.
*A* P

---

biological target: CETP (Homo sapiens); experiment: Assay of CETP Inhibition Using Purified Components (Reconstituted Buffer Assay); type: biochemical; set-up: made in house; host or cells: CHO cells (serum-free conditioned medium); details: Reconstituted Buffer Assay; read-out: IC50
OBSERVED_PROPERTY: IC50 (nM)

A: O[C@H](CN(Cc1cccc(OC(F)(F)F)c1)c1cccc(OCC2CCCCC2)c1)C(F)(F)F
B: CCc1cc(Oc2cccc(N(Cc3ccc(F)cc3C(F)(F)F)C[C@@H](O)C(F)(F)F)c2)ccc1Cl
*Q* Which record shows the lower IC50: the first, A , or the second, B ? Indicate which entry you chose by stating its label.
*A* B
(B: 1600 nM, A: 3500 nM)

---

target: CETP (Homo sapiens, UniProt P11597); assay: Assay of CETP Inhibition Using Purified Components (Reconstituted Buffer Assay); format: biochemical; set-up: made in house; host or cells: CHO cells (serum-free conditioned medium); details: Reconstituted Buffer Assay; read-out: IC50
Sequence (P11597 18-493): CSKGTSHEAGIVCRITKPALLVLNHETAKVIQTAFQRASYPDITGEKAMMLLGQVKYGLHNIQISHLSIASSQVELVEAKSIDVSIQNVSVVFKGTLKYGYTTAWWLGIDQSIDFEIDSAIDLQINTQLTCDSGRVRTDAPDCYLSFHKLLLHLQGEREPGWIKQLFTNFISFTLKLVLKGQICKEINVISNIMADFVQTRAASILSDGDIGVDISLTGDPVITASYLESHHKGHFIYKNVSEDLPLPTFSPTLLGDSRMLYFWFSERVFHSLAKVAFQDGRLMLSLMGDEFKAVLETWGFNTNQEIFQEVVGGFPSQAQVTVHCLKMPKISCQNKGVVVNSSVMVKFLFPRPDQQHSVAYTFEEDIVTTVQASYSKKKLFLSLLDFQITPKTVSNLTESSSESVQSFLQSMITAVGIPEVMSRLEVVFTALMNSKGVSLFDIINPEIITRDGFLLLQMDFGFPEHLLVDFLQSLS
OBSERVED_PROPERTY: IC50 (nM)

Check out these entries, answers already filled in.
>>> recorded_value("COc1cc(N(Cc2cccc(SC(F)(F)F)c2)C[C@@H](O)C(F)(F)F)cc(OC)c1OC")
4900
>>> recorded_value("OC(CCl)CN(Cc1cccc(OC(F)(F)F)c1)c1cccc(Oc2ccccc2)c1 (single isomer, unassigned) [Example 6]")
68000
>>> recorded_value("CC(C)c1cccc(Oc2cccc(N(Cc3cccc(OC(F)(F)F)c3)C[C@@H](O)C(F)(F)F)c2)c1")
280
>>> recorded_value("CC(C)Oc1cccc(N(Cc2cccc(OC(F)(F)F)c2)C[C@@H](O)C(F)(F)F)c1")
2700
>>> recorded_value("O[C@H](CN(Cc1cccc(OC(F)(F)C(F)F)c1)c1cccc(OCc2cccc(C(F)(F)F)c2)c1)C(F)(F)F")
27

I: O[C@H](CN(Cc1cccc(OC(F)(F)F)c1)c1cccc(Oc2cccc(OC(F)(F)F)c2)c1)C(F)(F)F
II: OC(CCl)CN(Cc1cccc(OC(F)(F)F)c1)c1cccc(Oc2ccccc2)c1 (single isomer, unassigned) [Example 5]
III: CCc1cc(Oc2cccc(N(Cc3c(F)cccc3C(F)(F)F)C[C@@H](O)C(F)(F)F)c2)ccc1Cl
IV: O[C@H](CN(Cc1cccc(OC(F)(F)F)c1)c1cccc(OCc2ccccc2)c1)C(F)(F)F
*Q* // sort entries: IC50, high to low Answer by listing the labels in the order asked for.
*A* III, II, IV, I

a: O[C@H](CN(Cc1cccc(OC(F)(F)F)c1)c1cccc(Oc2ccc3c(c2)CCCC3)c1)C(F)(F)F
b: O[C@H](CN(Cc1cccc(OC(F)(F)C(F)F)c1)c1cccc(Oc2cc(F)ccc2Br)c1)C(F)(F)F
c: O[C@H](CN(Cc1cccc(OC(F)(F)F)c1)c1cccc(Oc2ccc(F)cc2)c1)C(F)(F)F
d: O[C@H](CN(Cc1cccc(OC(F)(F)F)c1)c1cccc(OCc2ccc(OC(F)(F)F)cc2)c1)C(F)(F)F
*Q* // sort entries: IC50, high to low Answer by listing the labels in the order asked for.
*A* d, c, a, b

I: CC(C)(C)c1cccc(Oc2cccc(N(Cc3cccc(OC(F)(F)F)c3)C[C@@H](O)C(F)(F)F)c2)c1
II: O[C@H](CN(Cc1cccc(OC(F)(F)C(F)F)c1)c1cccc(OCc2cc(F)cc(F)c2)c1)C(F)(F)F
*Q* // compare measured IC50, left I , right II , return larger Indicate which entry you chose by stating its label.
*A* I
